Parameter % Mortality Day 3: see the listing below.
Tested on: Tribolium castaneum
Test parameters: 5 microlitre; Day 3
Value expressed in %; do not type the unit.

INSERT INTO results (compound, uom, obs_value) VALUES
  ('CCCC(C)O (stereo not drawn)', '%', 0.0),
  ('C1=CC2(C=C1)CC2 [Spiro[2.4]hepta-4,6-diene]', '%', 100.0);

Ask | Would you mind telling me what % Mortality Day 3 value was observed for CC(=O)C(C)O (stereo not drawn) ?
Reply | 100.0

Ask | And then `C1=CCCCC=C1` , what is it?
Reply | 27.5

Ask | And then `CC=O` , what is it?
Reply | 36.0

Ask | And then `CC1=CCC=CC1` , what is it?
Reply | 0.0

---

Parameter % Mortality Day 1: see the listing below.
Tested on: Tribolium castaneum
Test parameters: 5 microlitre; Day 1
Experimental: A total of 20 chemical standards were evaluated for their insecticidal activity against the stored grain pest, Tribolium castaneum. […] The mortality of insects was monitored daily by assessing insect movement as an indicator of mortality. The mortality was calculated by comparing the number of dead insects to the total number in the plate, and expressed as percentage mortality (Tables 6). Data were analysed using ANOVA as performed in GenStat, version 14. […]
Value expressed in %; do not type the unit.

INSERT INTO measurements (molecule, measured_attribute, uom, obs_value) VALUES
  ('CC(C)CC=O', '% Mortality Day 1', '%', 100.0);

Now take the following molecule into account.
Ask | Would you mind telling me what % Mortality Day 1 value was observed for CC(=O)CCO [4-Hydroxy-2-butanone] ?
Reply | 4.0

---

Test system: Tribolium castaneum
Test parameters: 5 microlitre; Day 3
Parameter % Mortality Day 3: see the listing below.
Value expressed in %; do not type the unit.

INSERT INTO measurements (compound, measured_attribute, obs_value) VALUES
  ('CCCC(=O)O', '% Mortality Day 3', 6.9),
  ('C=C1CCCCC1', '% Mortality Day 3', 16.0),
  ('O=Cc1ccccc1', '% Mortality Day 3', 0.0),
  ('CC(=O)CCO [4-Hydroxy-2-butanone]', '% Mortality Day 3', 4.0),
  ('CC1CC=CCC1 (centres unmarked)', '% Mortality Day 3', 17.7),
  ('CC(C)CC=O', '% Mortality Day 3', 100.0),
  ('CCC(O)CC', '% Mortality Day 3', 100.0);

Now take the following compound into account.
Ask | Would you mind telling me what % Mortality Day 3 value was observed for CCC(C)CO (centres unmarked) ?
Reply | 80.0

---

System: Tribolium castaneum
Test parameters: in vivo
Parameter % Mortality Day 4: see the listing below.
Value expressed in %; do not type the unit.

Example compounds with recorded % Mortality Day 4:
INSERT INTO results (smiles, uom, obs_value) VALUES
  ('CCCC=O', '%', 39.5),
  ('CC(C)CCO', '%', 50.0),
  ('CC(=O)C(C)=O', '%', 0.0);

Ask | Would you mind telling me what % Mortality Day 4 value was observed for `CCO` ?
Reply | 0.0

---

Test system: Tribolium castaneum
Test parameters: in vivo
Measured attribute: % Mortality Day 2 (%)
Value expressed in %; do not type the unit.

INSERT INTO results (compound, uom, obs_value) VALUES
  ('CC(=O)C(C)=O [2,3 Butanedione, 2,3-butanedione]', '%', 0.0),
  ('CCCC=O [Butyraldehyde]', '%', 39.5),
  ('CC(C)CCO [3-Methyl-1-butanol]', '%', 45.0);

Ask | Would you mind telling me what % Mortality Day 2 value was observed for CCO [Ethanol] ?
Reply | 0.0

---

System: Fusarium verticillioides
Measurement description: Fungicidal bioassay, compounds alone or in synergy
Assay type: cell-based
Test parameters: in isolation
Measured attribute: fungicidal activity against F. verticillioides

INSERT INTO assay_data (molecule, obs_value) VALUES
  ('CC=O [Acetaldehyde]', 'high fungicidal activity'),
  ('CC(C)CC=O [Isovaleraldehyde]', 'high fungicidal activity');

---

Tested on: Tribolium castaneum
Test parameters: in vivo
Measured attribute: % Mortality Day 3 (%)
Value expressed in %; do not type the unit.

Example molecules with recorded % Mortality Day 3:
INSERT INTO results (smiles, measurement_target, measured_attribute, obs_value) VALUES
  ('CC(C)CCO', 'Tribolium castaneum', '% Mortality Day 3', 50.0),
  ('CCCC=O', 'Tribolium castaneum', '% Mortality Day 3', 39.5),
  ('CCO', 'Tribolium castaneum', '% Mortality Day 3', 0.0);

Now take the following molecule into account.
Ask | Tribolium castaneum / % Mortality Day 3 / `CC(=O)C(C)=O` : value?
Reply | 0.0

---

Test system: Tribolium castaneum
Test parameters: 5 microlitre; Day 2
Procedure: A total of 20 chemical standards were evaluated for their insecticidal activity against the stored grain pest, Tribolium castaneum. […] The mortality of insects was monitored daily by assessing insect movement as an indicator of mortality. The mortality was calculated by comparing the number of dead insects to the total number in the plate, and expressed as percentage mortality (Tables 6). Data were analysed using ANOVA as performed in GenStat, version 14. […]
Measured attribute: % Mortality Day 2 (%)
Value expressed in %; do not type the unit.

INSERT INTO assay_data (compound, measurement_target, uom, obs_value) VALUES
  ('CC(=O)CCO [4-Hydroxy-2-butanone]', 'Tribolium castaneum', '%', 4.0),
  ('CC=O', 'Tribolium castaneum', '%', 36.0),
  ('O=Cc1ccccc1', 'Tribolium castaneum', '%', 0.0);

Ask | Would you mind telling me what % Mortality Day 2 value was observed for `CC1=CCC=CC1` ?
Reply | 0.0

Ask | And then C1=CC2(C=C1)CC2 [Spiro[2.4]hepta-4,6-diene] , what is it?
Reply | 100.0

Ask | And then CCC(C)CO (centres unmarked) , what is it?
Reply | 80.0

Ask | And then `C1=CCCCC=C1` , what is it?
Reply | 20.8

Ask | And then `CCC(O)CC` , what is it?
Reply | 100.0

---

System: Tribolium castaneum
Test parameters: in vivo
Measured attribute: % Mortality Day 1 (%)
Value expressed in %; do not type the unit.

Example compounds with recorded % Mortality Day 1:
INSERT INTO assay_data (smiles, measured_attribute, uom, obs_value) VALUES
  ('CCCC=O', '% Mortality Day 1', '%', 31.5),
  ('CC(C)CCO', '% Mortality Day 1', '%', 45.0),
  ('CC(=O)C(C)=O', '% Mortality Day 1', '%', 0.0);

Now take the following compound into account.
Ask | Would you mind telling me what % Mortality Day 1 value was observed for `CCO` ?
Reply | 0.0

---

Parameter % Mortality Day 1: see the listing below.
Test system: Tribolium castaneum
Test parameters: 5 microlitre; Day 1
Value expressed in %; do not type the unit.

Example compounds with recorded % Mortality Day 1:
INSERT INTO results (compound, measured_attribute, obs_value) VALUES
  ('CCC(O)CC', '% Mortality Day 1', 100.0),
  ('O=Cc1ccccc1', '% Mortality Day 1', 0.0),
  ('CC(=O)C(C)O (stereo not drawn)', '% Mortality Day 1', 100.0),
  ('CCCC(=O)O', '% Mortality Day 1', 0.0),
  ('C=C1CCCCC1', '% Mortality Day 1', 8.0);

Ask | Would you mind telling me what % Mortality Day 1 value was observed for `C1=CCCCC=C1` ?
Reply | 12.5

Ask | And then CCC(C)CO (stereo not drawn) , what is it?
Reply | 80.0

Ask | And then `CC1=CCC=CC1` , what is it?
Reply | 0.0

Ask | And then C1=CC2(C=C1)CC2 [Spiro[2.4]hepta-4,6-diene] , what is it?
Reply | 87.1

---

Parameter % Mortality Day 2: see the listing below.
Tested on: Tribolium castaneum
Test parameters: 5 microlitre; Day 2
Value expressed in %; do not type the unit.

INSERT INTO assay_data (compound, measurement_target, measured_attribute, uom, obs_value) VALUES
  ('CC(=O)C(C)O (stereo not drawn)', 'Tribolium castaneum', '% Mortality Day 2', '%', 100.0),
  ('CC(C)CC=O', 'Tribolium castaneum', '% Mortality Day 2', '%', 100.0),
  ('C=C1CCCCC1', 'Tribolium castaneum', '% Mortality Day 2', '%', 8.0),
  ('CC1CC=CCC1 (stereo not drawn)', 'Tribolium castaneum', '% Mortality Day 2', '%', 13.7);

Ask | Would you mind telling me what % Mortality Day 2 value was observed for CCCC(C)O (stereo not drawn) ?
Reply | 0.0

Ask | And then `CCCC(=O)O` , what is it?
Reply | 0.0
